System: A549/SN-38-5 cell line
Test: Anticancer drug sensitivity test, A549/SN-38-5
Assay type: cell-based, human
Details: IC50 for A549/SN-38-5 divided by IC50 for A549
valueType: Relative resistance value

O=c1[nH]cc(F)c(=O)[nH]1 ... (0.8)
Nc1ccn([C@@H]2O[C@H](CO)[C@@H](O)C2(F)F)c(=O)n1 ... (0.4)
COc1cccc2c1C(=O)c1c(O)c3c(c(O)c1C2=O)C[C@@](O)(C(=O)CO)C[C@@H]3O[C@H]1C[C@H](N)[C@H](O)[C@H](C)O1 ... (0.6)
COc1cc([C@@H]2c3cc4c(cc3[C@@H](O[C@@H]3O[C@@H]5CO[C@@H](C)O[C@H]5[C@H](O)[C@H]3O)[C@H]3COC(=O)[C@H]23)OCO4)cc(OC)c1O [Etoposide] ... (2.7)
CC(=O)O[C@H]1C(=O)[C@@]2(C)[C@H]([C@H](OC(=O)c3ccccc3)[C@]3(O)C[C@H](OC(=O)[C@H](O)[C@@H](NC(=O)c4ccccc4)c4ccccc4)C(C)=C1C3(C)C)[C@]1(OC(C)=O)CO[C@@H]1C[C@@H]2O ... (1.2)

Task item: Please give measured Relative resistance value of the following entry: CO[C@@]12[C@H](COC(N)=O)C3=C(C(=O)C(C)=C(N)C3=O)N1C[C@@H]1N[C@@H]12
Reply: (1.0)

Task item: Please give measured Relative resistance value of the following entry: N.N.[Cl][Pt][Cl] [Cisplatin]
Reply: (0.9)

Task item: Please give measured Relative resistance value of the following entry: CCc1c2c(nc3ccc(O)cc13)-c1cc3c(c(=O)n1C2)COC(=O)[C@]3(O)CC [SN-38, 7-ethyl-10-hydroxycamptothecin]
Reply: (7.7)

Taken from patent US7371773B2.
